These data points were gathered from the nanobody polyreactivity screen of Harvey et al. (2022).

assay: yeast display, Sf9 membrane polyspecificity reagent, FACS + sequencing; frameworks hold sequencing errors
VALUE TYPE: polyreactivity (PSR sort gate)

>  <RESIDUE CODES>
QVQLVESGGGLVQAGGSLRLSCAASGSTFFVYDMGWYRQAPGKERELVAAISSDTSTNYADSVKGRFTISRDNAKNTVYLQMNSLKPEDTAVYYCNADSYWEYDYWGQGTQVTVSS

>  <READING>
low polyreactivity

$$$$
>  <RESIDUE CODES>
QVQLVESGRGLVQAGGSLRLSCAASGFTLICNARGCYRQAPGKERELVAAITWSGGSTYYADSVKGRFTISRDKAKNTVYLQMNSLKPEDTAVYYCAADYSIQSNDDWGQGTQVTVSS

>  <READING>
low polyreactivity

$$$$
>  <RESIDUE CODES>
QVQLVESGGGLVQAGGSLRLSCAASGSIFNIYAMGWYRQAPGKERELVATITGIADSTYYADSVKGRFTISRDNAKNTVYLQMNSLKPEDTAVYYCAAIYGSRYTTGQTRRDYYSWGQGTQVTVSS

>  <READING>
low polyreactivity

$$$$
>  <RESIDUE CODES>
QVQLVESGGGLVQAGGSLRLSCAASGSIFRIYAMGWYRQAPGKERELVAAISTSGVRTYYADSVKGRFTISRDNAKNTVYLQMNSLKPEDTAVYYCNARYVRPRGTGDFDYWGQGTQVTVSS

>  <READING>
high polyreactivity

$$$$

Hi, could you look up polyreactivity (PSR sort gate) for each item in my list?
1. QVQRVESGGGLVQAGGSLRLSCAASGSTFLVNGMGWNRPAPGKERELVASITRDSSTYADSVKGRFTISRDNAKNTVYLQMNSLKPEDTAVYYCAATSRRRWSQQQGYGYYYWGQGTQVTVSS
2. QVQLVESVGGLVQAGGSLRLSCAASGLTFWYYAMGCYRQAPGKERELVARITRSGVGTYYADSVKGRFTISRDNAKNTVYLQMNSLKAEDTAVYYCNARYQYSWVRYGYDYWGQGTQVTVSS
3. QVQLVESGGGLVQAGGSLRLSCAASGSIFYSNAMGWYRQAPGKERELVATIRSGGTTYYADSVKGRFTISRDNAKNTVYLQMNSLKPEDTAVYYCAKRYGVKYWGQGTQVTVSS

## Output
["high polyreactivity", "high polyreactivity", "high polyreactivity"]

====

experiment: yeast display, Sf9 membrane polyspecificity reagent, FACS + sequencing; frameworks hold sequencing errors
VALUE TYPE: polyreactivity (PSR sort gate)

In the examples that follow, each entry is paired with its recorded polyreactivity (PSR sort gate).
>  <RESIDUE CODES>
QVQLVESGGGLVQAGASLRLSCAASGSTFKYYTMGWYRQAPGKERALVAAISFSGARTYYADSVKGRFTISRDNAKNTVYLQMNSLKPEDTAVYYCAKASSYSRRYEYWGQGTQVTVSS

>  <VALUE TYPE>
polyreactivity (PSR sort gate)

>  <READING>
high polyreactivity

$$$$
>  <RESIDUE CODES>
QVQLVESGGGLVQAGGSLRLSCAASGSISGYYAMGGYRQAPGKERELVASIRYTGARTYYADSVKGRFTISRDNAKNTVYLQMNSLKPEDTAVYYCAADVKRDRVWGGDYWGQGTQVTVSS

>  <VALUE TYPE>
polyreactivity (PSR sort gate)

>  <READING>
low polyreactivity

$$$$
>  <RESIDUE CODES>
QVHLVESGGGLVQAGGSLRLSCAASGRTFINYAMGWYRQAPGKERELVAAITTGGRTNYADSVKGRFTISRDNAKNTVYLQMNSLKPEDTAVYYCAADRYYWGRYTLNYWGQGTQVTVSS

>  <VALUE TYPE>
polyreactivity (PSR sort gate)

>  <READING>
low polyreactivity

$$$$
>  <RESIDUE CODES>
PVQLVESGGGLVQAGGSLRLSCAASGITIISYAMVWYRQAPGKERELVAAITKSGGRTYYADSVKGRFTISRDNAKNTVYLQMNSLKPEDTAVYYCAAYHLRDNRIGGGYWGQGTQVTVSS

>  <VALUE TYPE>
polyreactivity (PSR sort gate)

>  <READING>
high polyreactivity

$$$$
>  <RESIDUE CODES>
QVQLVESGGGLVQAGGSLRLSCAASGSTFFSNTMGWYRQAPGKERELVAAITSRGGRTYYADSVKGRFTISRDNAKNTVYLQMNSLKPEDTAVYYCAARFVLHGVYLKFYWGQGTQVTVSS

>  <VALUE TYPE>
polyreactivity (PSR sort gate)

>  <READING>
high polyreactivity

$$$$

Respectfully, I request polyreactivity (PSR sort gate) for each entry included below.
1. QVQLVESGGGLVQAGGSLRLSCAASGRIFHWYTMGWYRQAPGKERELVATITDGGSTYYADSVKGRFTISRDNAKNTVYLQMNSLKPEDTAVYYCAARKIGTRRLRYPYYIFGYWGQGTQVTVSS
2. QVQLVESGGGLVQAGGSLRLSCAASGFTFRANGMGWYRQAPGKETELVATITSGGTTNYADSVKGRFTISRDNAKNTVYLQMNSLKPEDTAVYYCAKRFGPAYFRLYDYWGQGTQVTVSS
3. QVQLVESGGGLVQAGGSLRLSCAASGSTFGVYAMGWYRQAPGKERELVAAISSSTGSTYYADSVKGRFTISRDNAMNSVYLQMNSLKPEDTAVYYCDAAGYGKVLGDYWGQGTLVTVSS

## Output
1. high polyreactivity
2. low polyreactivity
3. low polyreactivity

Record polyreactivity (PSR sort gate) for all entries; do not skip any.
1. QVQHVESGGGLVQAGASLRLSCAASGFTIRSYVRGWYRQAPGKEREIVAAISYRGGGTNYADSVKGRFTISRDNAKNTVYLHMNSLKPEDTAVYYCNARSGSSKSGYYYWGQGTQVTVSS
2. QVQLVESGGGLGQAGGSLRLSCAASGSIFSFYAMGWYRQAPGKERELVAVINTDGDNTYYADSVKGRFTISRDNAKNTVYLQMNSLKAEDSAVYYCAASVSSYSYTRGGYWGQGTQVTVSS
3. QVQLVESGGGLVQAGGSLRLSCAASGRTVLHYDMGWYRQAPGKERELVASISSGVSTHYADSVKGRFTISRDNAKNTVYLQMNSLQPEDTAVYYCAARPYRFGRYGYDYDYWGQGTQVTVSS

## Output
1: high polyreactivity; 2: high polyreactivity; 3: high polyreactivity
